Target: T1, Human serum albumin (human, UniProt P02768 25-609)
T1 construct: Purchased protein used in solution; In the hydrothermal experiments it is heat-aggregated into an insoluble precipitate; also called HSA
Assay: fluorescence titration of TMR-labelled peptide against HSA, Hill fit (Example 2, FIG. 6)
pKd: −log10 of the molar value. No end group written: not given here.

BINDER	pKd
DDEWLCGWRPLCIDEILR (cysteine pairing not given here; also: TMR label, site not given here, The free text was followed; also called TMR-SA21; TMR-labeled SA1) [TMR-labeled SA21]	> 3.30
